- EXPERIMENTAL_TARGET: DPP-IV activity from human colonic carcinoma cell extracts (Caco-2) (Homo sapiens, UniProt P27487)
- Construct: Cell extract is prepared from cells solubilized in 10 mM Tris-HCl, 0.15 M NaCl, 0.04 t.i.u. aprotinin, 0.5% nonidet-P40; host or cells: Caco-2 (differentiated), NP-40 solubilized extract
- Sequence (P27487 whole entry): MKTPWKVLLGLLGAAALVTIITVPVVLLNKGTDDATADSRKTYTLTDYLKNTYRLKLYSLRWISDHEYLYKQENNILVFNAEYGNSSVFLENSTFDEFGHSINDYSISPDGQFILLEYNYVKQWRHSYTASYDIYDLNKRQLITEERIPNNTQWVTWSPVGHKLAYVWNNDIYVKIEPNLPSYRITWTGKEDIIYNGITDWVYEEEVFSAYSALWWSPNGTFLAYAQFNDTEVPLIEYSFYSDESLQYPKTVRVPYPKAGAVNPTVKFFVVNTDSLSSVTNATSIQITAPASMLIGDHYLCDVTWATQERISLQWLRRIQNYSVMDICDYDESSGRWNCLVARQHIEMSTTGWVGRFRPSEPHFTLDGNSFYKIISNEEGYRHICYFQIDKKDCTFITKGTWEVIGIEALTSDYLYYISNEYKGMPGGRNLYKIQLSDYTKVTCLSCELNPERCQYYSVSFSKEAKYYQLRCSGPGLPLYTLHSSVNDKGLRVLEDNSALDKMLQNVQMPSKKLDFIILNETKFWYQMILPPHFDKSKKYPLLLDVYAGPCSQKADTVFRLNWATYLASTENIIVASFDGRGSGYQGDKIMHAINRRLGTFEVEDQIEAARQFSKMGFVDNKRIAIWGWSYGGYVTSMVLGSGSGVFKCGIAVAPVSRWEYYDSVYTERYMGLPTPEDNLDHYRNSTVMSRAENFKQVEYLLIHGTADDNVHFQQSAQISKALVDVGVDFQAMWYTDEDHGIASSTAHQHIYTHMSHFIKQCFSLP
- PROTOCOL_TEXT: Caco-2 DPP-IV Assay
- Format: biochemical
- CONDITIONS: Caco-2 cell extract, substrate H-Alanine-Proline-pNA
Label key: MET means IC50 under 6 µM; NOT MET means IC50 of 6 µM or more.

Answered cases to consult:
O=C(CNCCNc1ccccn1)N1CCCC1 [Ex. 2D]    NOT MET
O=C(CNCCNc1ncccn1)N1CCCC1 [Ex. 2B]    NOT MET
O=C(CNCCNc1ccc(Cl)cn1)N1CCCC1 [Ex. 1]    MET

Quick check: IC50 of O=C(CNC1(CO)CCCC1)N1CCCC1 [Ex. 2C] under 6 µM?
NOT MET

Is the reported IC50 for N#Cc1ccc(NCCNCC(=O)N2CCCC2)nc1 [Ex. 2A] strictly below 6 µM?
MET
